The origin of these recorded values is the NIST ThermoML archive (doi:10.1016/j.jct.2008.12.005).

test.description: activity coefficient (dimensionless); of the first substance listed, at infinite dilution; xn = mol fraction of the nth substance listed
condition.set: 358.15 K; 101 kPa; Liquid; Chromatography; x1 = 0
Classify by measured activity coefficient: true if it is equal to or exceeds 2, false if it is smaller.

Study these solved cases before continuing.
CO [methanol] + CC[S+](CC)CC.O=S(=O)([N-]S(=O)(=O)C(F)(F)F)C(F)(F)F: false
C#CCCCC [1-hexyne] + CC[S+](CC)CC.O=S(=O)([N-]S(=O)(=O)C(F)(F)F)C(F)(F)F: true
C=CCCCC [hex-1-ene] + CC[S+](CC)CC.O=S(=O)([N-]S(=O)(=O)C(F)(F)F)C(F)(F)F: true
c1ccsc1 [thiophene] + CC[S+](CC)CC.O=S(=O)([N-]S(=O)(=O)C(F)(F)F)C(F)(F)F: false
Cc1ccccc1C [1,2-dimethylbenzene] + CC[S+](CC)CC.O=S(=O)([N-]S(=O)(=O)C(F)(F)F)C(F)(F)F: true

Prompt: Assess whether reported activity coefficient for CCc1ccccc1 [ethylbenzene] + CC[S+](CC)CC.O=S(=O)([N-]S(=O)(=O)C(F)(F)F)C(F)(F)F sits at 2 or higher.
Completion: true

Prompt: Assess whether reported activity coefficient for C1CCOC1 [tetrahydrofuran] + CC[S+](CC)CC.O=S(=O)([N-]S(=O)(=O)C(F)(F)F)C(F)(F)F sits at 2 or higher.
Completion: false

====

Property: activity coefficient; scope: individual compounds
test.description: activity coefficient (dimensionless); of the first substance listed, at infinite dilution; xn = mol fraction of the nth substance listed
condition.set: 318.15 K; 101 kPa; Liquid; Chromatography; x1 = 0
Give your answer as a number; write no unit.

Cc1ccc(C)cc1 [1,4-dimethylbenzene] + CC[S+](CC)CC.O=S(=O)([N-]S(=O)(=O)C(F)(F)F)C(F)(F)F: 2.3
Cc1cccc(C)c1 [1,3-dimethylbenzene] + CC[S+](CC)CC.O=S(=O)([N-]S(=O)(=O)C(F)(F)F)C(F)(F)F: 2.31

Prompt: For the compound C=CCCCCCC [oct-1-ene] + CC[S+](CC)CC.O=S(=O)([N-]S(=O)(=O)C(F)(F)F)C(F)(F)F , what activity coefficient is on record?
Completion: 23.2

Prompt: For the compound CCCCCCC [heptane] + CC[S+](CC)CC.O=S(=O)([N-]S(=O)(=O)C(F)(F)F)C(F)(F)F , what activity coefficient is on record?
Completion: 33.5

Prompt: For the compound CCCCC [pentane] + CC[S+](CC)CC.O=S(=O)([N-]S(=O)(=O)C(F)(F)F)C(F)(F)F , what activity coefficient is on record?
Completion: 18.3

Prompt: For the compound Cc1ccccc1C [1,2-dimethylbenzene] + CC[S+](CC)CC.O=S(=O)([N-]S(=O)(=O)C(F)(F)F)C(F)(F)F , what activity coefficient is on record?
Completion: 2.07

Prompt: For the compound C=CCCC [1-pentene] + CC[S+](CC)CC.O=S(=O)([N-]S(=O)(=O)C(F)(F)F)C(F)(F)F , what activity coefficient is on record?
Completion: 8.06

Prompt: For the compound CCCCCC [hexane] + CC[S+](CC)CC.O=S(=O)([N-]S(=O)(=O)C(F)(F)F)C(F)(F)F , what activity coefficient is on record?
Completion: 24
